System: OVCAR-3
assay_procedure: NCI tumour cell line growth inhibition, 48 h
Activity calls are given as the source filed them. Cut-off read from the data, not from the text of the source: active = GI50 up to about 1.1 µM and inactive = higher.
assay_metric: GI50

Some solved entries appear below for comparison.
CC(=O)O[C@@]12CO[C@@H]1C[C@@H](O)[C@@]1(C)C(=O)[C@H](O)C3=C(C)[C@@H](OC(=O)[C@H](O)[C@@H](NC(=O)c4ccccc4)c4ccccc4)C[C@@](O)([C@@H](OC(=O)c4ccccc4)C12)C3(C)C (stereo partly drawn): < 0.0162 µM (active)
C=C1C(=O)O[C@@H]2C[C@@H](C)[C@@H]3[C@@H](OC4OC(COC(C)=O)C(O)C(O)C4O)CC(=O)[C@@]3(C)C[C@H]12 (stereo partly drawn): 1.1 µM (active)
Cc1cn(S(=O)(=O)c2ccccc2)c2c(OCc3ccccc3)cc([N+](=O)[O-])cc12: > 100 µM (inactive)
CC(=O)c1ccc2c(c1)CC1(C2)Cc2ccc3c(c2C1=O)CCC3 (stereo not drawn): 31 µM (inactive)

Tell us which GI50 value is on record for "Cc1ccc(C(=O)C#Cc2cnc(O)nc2O)cc1"
13.5 µM (inactive)

Annotate the compound "Clc1cc(Cl)c2ns[s+]c2c1Cl" with its measured GI50.
> 100 µM (inactive)

Answer with the recorded GI50 for the compound listed here: COc1cc(C2c3cc4c(cc3[C@@H](NCCN(C)C)C3COC(=O)[C@H]23)OCO4)cc(OC)c1O (stereo partly drawn)
1.05 µM (active)

Note GI50 for the compound shown: CCOC(=O)C(NCc1cccc(C(F)(F)F)c1)(NC(=O)c1ccccc1)C(F)(F)F (stereo not drawn)
22.8 µM (inactive)

Tell us which GI50 value is on record for "O=C1NC(=O)C(c2c[nH]c3ccccc23)=C1c1cn(C(c2ccccc2)(c2ccccc2)c2ccccc2)cn1"
6.76 µM (inactive)

Read off the recorded GI50 for "O=C(NNc1ccnc2cc(Cl)ccc12)/C(=C\c1ccccc1Cl)NC(=O)c1ccccc1"
16.5 µM (inactive)

Tell me GI50 reported for "O=C1C(=Cc2ccc(F)cc2)C(=O)c2ccccc21"
> 100 µM (inactive)

Supply GI50 value. Item: CCCC1(NC(=O)C(F)(F)F)CC(OC)OC2COC(c3ccccc3)OC21 (stereo not drawn)
> 100 µM (inactive)

Return reported GI50. Input compound: Cn1c(=O)c2c(nc(N3CCOCC3)n2CCCNCC(O)c2ccc(O)c(O)c2)n(C)c1=O (stereo not drawn)
> 100 µM (inactive)

Read off the recorded GI50 for "Cc1ccc(Cl)c2[nH]c(-c3ccccc3)cc(=O)c12"
36.1 µM (inactive)

// Input: "Cc1nc2cc(F)c(F)cc2[nH]c1=O" . Output its GI50 only.
> 100 µM (inactive)

For the compound "C[C@]12CCC(=O)[C@@H](CCC3=CC(=O)C=CC3=O)[C@@H]1CCC2=O" , give its reported GI50.
17.1 µM (inactive)

Answer with the recorded GI50 for the compound listed here: "NC1CCCCC1.O=P(O)(O)C(CSc1ccccc1)P(=O)(O)O"
47.9 µM (inactive)

Give the reported value of GI50 for this record: "CCOC(=O)CSc1c(C(=O)OCC)c(=O)n(-c2ccccc2)c(=S)n1-c1ccccc1"
> 100 µM (inactive)

Tell me measured GI50 for "S=C(CSc1ccccc1)Nc1cccc2ccccc12" please.
20.8 µM (inactive)

----------
System: U-251
assay_procedure: NCI tumour cell line growth inhibition, 48 h
Activity calls are given as the source filed them. No stated cut-off is given here; in the data, active = GI50 up to about 1.1 µM and inactive = higher.
assay_metric: GI50

Please look at this molecule and report its GI50: "CCCC/N=C(/c1ccccc1)N1CCOCC1"
> 100 µM (inactive)

----------
Tested on: SW-620
assay_procedure: NCI tumour cell line growth inhibition, 48 h
Active and inactive are the calls of the source. Rule as the data show it: active = GI50 up to about 1.1 µM and inactive = higher.
Recorded GI50 for the following molecules

# count of solved cases: 4
CCOC(=O)/C=C(/CN1C(=O)c2ccccc2C1=O)c1ccccc1: > 100 µM (inactive)
COc1ccc(-c2cn3c(n2)sc2cc(C)ccc23)cc1: 25.8 µM (inactive)
C(=N\c1ccc(-c2nc3ccccc3s2)cc1)/c1ccco1: > 100 µM (inactive)
Nc1nc(=O)c(/N=N/c2ccccc2)c(C(=O)O)[nH]1: > 100 µM (inactive)

Please report the measured GI50 for Nc1nc(SCCC/C=C/B(O)O)nc2c1ncn2C1OC(COP(=O)(O)O)C(O)C1O (stereo unspecified) tested on SW-620.
> 203 µM (inactive)

GET GI50 | system: SW-620 | item: "CC(C)=C=CC(C)(C)NS(=O)(=O)NC(C)(C)C=C=C(C)C"
> 100 µM (inactive)

Report the value of GI50 obtained on SW-620 for "O=C(N/N=C(COc1ccccc1)\N=C\c1cccnc1)c1ccncc1" .
> 100 µM (inactive)

Fill in: GI50 on SW-620, entry CCOC(=O)/C(=C\NCC(O)c1ccccc1)c1nc2ccccc2[nH]1 (stereo unspecified)
31.4 µM (inactive)

----------
Test system: CAKI-1
assay_procedure: NCI tumour cell line growth inhibition, 48 h
Active and inactive are the calls of the source. No stated cut-off is given here; in the data, active = GI50 up to about 1.1 µM and inactive = higher.
API: response.call in Y = active, N = inactive

Example results:
CC1=CC(=C(c2ccc(N)c(C)c2)c2ccc(N)c(C)c2)C=CC1=N: N
COC1/C=C/C(C)C(C(C)C(OC)C(C)CCC(=O)C(C)C(C/C=C/N(C)C=O)OC)OC(=O)/C=C/C=C(\C)CC(OC)CC2=CC(=O)O[C@H](C2)C(C)C(OC)CC(OC)/C=C/C(C)C(OC)C1 (stereo not given in full): Y
O=C(NC12CC3CC(CC(C3)C1)C2)n1cnc2c(Cl)ncnc21: N
COC1(c2ccccc2)N=C(S)NN=C1c1ccccc1 (stereo not given): N
C=CCN1C(=O)/C(=C/c2cccs2)N=C1SC/C=C/C: N
O=c1[nH]c(=O)n(C2CC(O)C(CO)O2)cc1OCc1ccccc1 (stereo not given): N

Hi, do you know how "O=C(OC/C=C1C=C(OC(=O)c2ccccc2)/C(=N/N(C(=O)c2ccccc2)c2ccccc2)O\1)c1ccccc1" came out in this test?
Y

Returns: the outcome recorded for "CCOC(=O)/C=C(/CN1C(=O)c2ccccc2C1=O)c1ccccc1" in this assay.
N

For O=C1CS(=O)(=O)C(c2cccc(Oc3ccccc3)c2)N1c1cccc(Cl)c1Cl (stereo not given) , which call appears in the assay record?
N

Fill in: this test's call for COc1ccc(C(=O)C(CC2C(=O)NC(=O)NC2=O)c2ccc(OC)cc2)cc1 (stereo not given) is ___
N

Give the logged outcome of this assay for the following compound: "COC(=O)[C@@H]1CSC(=S)N1C(=O)C[C@H]1CC=CC[C@H]1CC(=O)Sc1ccccc1"
N

Recorded test outcome, item "COc1cc(C(=O)C/C(CCC(=O)Nc2ccc(Cl)cc2Cl)=N/NC(=O)C(=O)NN)ccc1O"
N

Query: recorded result category for COC(=O)C1CC(=O)CCC1c1ccccc1 (stereo not given) in this test
N

So what was the verdict on "CC1(C)CCc2c(ccc(C(=O)/C=C/c3ccc(O)cc3)c2O)O1" in this test?
N

----------
Tested on: KM12
assay_procedure: NCI tumour cell line growth inhibition, 48 h
Active and inactive are the calls of the source. Cut-off read from the data, not from the text of the source: active = GI50 up to about 1.1 µM and inactive = higher.
Permitted responses: true (active), false (inactive)

O=[N+]([O-])c1ccc(OP(=O)(O)OCC2OC(CP(=O)(O)O)C(O)C2O)cc1 (stereo unspecified): false

Answer briefly: the call reported for "CC(=O)Nc1ccc2cc3[nH]c4cc(NC(C)=O)ccc4c3nc2c1" in this assay.
false

# lookup: test call for "CCn1c(-c2ccc(OC)cc2)nc2c1C(=O)c1ccccc1C2=O"
false

----------
Tested on: DU-145
assay_procedure: NCI tumour cell line growth inhibition, 48 h
The source made the active and inactive calls. Cut-off read from the data, not from the text of the source: active = GI50 up to about 1.1 µM and inactive = higher.
assay_metric: GI50

Example entries begin here.
CSc1ncnc2c1cnn2Cc1cn(COCCO)nn1: 49.3 µM (inactive)
CCCCCCCCCCCCCC(=O)CBr: 18.6 µM (inactive)
O=c1c2ccccc2nc(-c2ccccc2)n1O: > 100 µM (inactive)
CC(=O)OCc1cc2ccccc2nc1C(Br)(Br)Br: 4.59 µM (inactive)
O=C1CS(=O)(=O)C(c2cccc(Oc3ccccc3)c2)N1c1cccc(Cl)c1Cl (stereo unspecified): 42.6 µM (inactive)
CC1(CNCc2ccccc2)CC(CCc2ccccc2)N(C(=O)c2ccc([N+](=O)[O-])cc2)C1Cc1ccc(O)cc1 (stereo unspecified): 14.7 µM (inactive)
S=C1c2cc(Cl)ccc2N=C(NC2CCCC2)C2CSCN12 (stereo unspecified): > 100 µM (inactive)
CCOC(=O)c1c(NC(=O)c2ccccc2)sc2c1CCC2: > 100 µM (inactive)

Please look at this molecule and report its GI50: "CN(C)CCNC(=O)Cn1cnc2cccc([N+](=O)[O-])c2c1=O"
> 100 µM (inactive)

Specify reported GI50 for the molecule shown: O=C(O)CCC(/N=C(\C(=N\C(CCC(=O)O)C(=O)O)c1ccccc1)c1ccccc1)C(=O)O (stereo unspecified)
> 100 µM (inactive)

Quote GI50 reported for "CC1(C)CCc2c(ccc(C(=O)/C=C/c3ccc(O)cc3)c2O)O1" please.
9.25 µM (inactive)

The measured values listed here are drawn from ChEMBL document CHEMBL1201862.
